Data provenance: the RNAGym collection of RNA variant scans (doi:10.7554/elife.80360)

B1: HDV Ribozyme (parent)
chain: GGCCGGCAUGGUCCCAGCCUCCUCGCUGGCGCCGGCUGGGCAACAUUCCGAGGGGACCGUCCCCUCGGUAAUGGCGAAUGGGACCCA

- Variants of: B1
- ASSAY METHOD TEXT: self-cleavage, relative activity (ratio to wild type); higher = more cleavage; co-transcriptional

MUTANT CODE	self-cleavage
U9A C36G	0.369
C22A G53A	0.222
C44A A51U	1.13
C36A A83C	0.0791
C13U C18G	0.0332
C7G G35C	0.237
G54U C86G	1.01
C58A U65G	1.05
C75A G82U	0.101
G68A U72A	0.396
C64G A70U	0.978
C36G A78G	0.0639
U46A G54U	0.684
C18A G68U	0.147
C4G C75A	0.0692
A43U C58U	0.462
G29U U60G	0.175
G28C U72A	0.151
C3G G31U	0.0739
C33G U79C	0.0875
C24A G28C	0.0773
